protocol: ATG_BRE_CIS: Attagene CIS-FACTORIAL HepG2 Assay for human Bone Morphogenetic Protein (BMP) Response Element (BRE) (AID 2282933)
study_conditions: HepG2 BMP response element reporter, Attagene transcription factor profiling; actives raise or lower the signal
Procedure: ATG_CIS is a cell-based, multiplexed-readout assay that uses HepG2, a human liver cell line, with measurements taken at 24 hours after chemical dosing in a 24-well plate.ATG_BRE_CIS is one of 52 assay component(s) measured or calculated from the ATG_CIS assay. […] This assay endpoint, ATG_BRE_CIS, was analyzed with bidirectional fitting relative to DMSO as the negative control and baseline of activity. […]
Calls of active or inactive are those of the source. The calls were made as follows: active = hit-call score of the fitted dose curve at least 0.9, where 1 is the maximum; inactive = score below 0.9.
A correct response names exactly one class from active, inactive

Tell me the recorded outcome of this test for "CC(C)(C)c1cccc(C(C)(C)C)c1O" .
inactive

What classification did "Oc1cccc(O)c1" end up with in this test?
active

Per the records of this test, what outcome belongs to "CC(=O)CC(C)(C)O" ?
inactive

Recorded test outcome, item "CCCCCCCCCCCCCCCS(=O)(=O)Oc1ccccc1"
inactive

Fill in: this test's call for "c1ccc2cc3c(ccc4ccccc43)cc2c1" is ___
inactive

Lab log entry: "ClC1=C(Cl)C(Cl)(Cl)C(Cl)=C1Cl" — outcome as called in the assay?
inactive

Tell me the assay call for CC(O)CO (centres undefined) please.
inactive

Entry "COc1cc(CCC(=O)CC(=O)CCc2ccc(O)c(OC)c2)ccc1O" : call = ?
inactive

Per the assay record, what outcome was assigned to "Cc1cc(C)c(O)c(C)c1" ?
inactive

Write down the call the test reported for this molecule. Item: "NC(=O)N(O)[C@@H]1C=C[C@H](Oc2cccc(Oc3ccc(F)cc3)c2)C1"
inactive

Could you kindly confirm the outcome this assay logged for "CCCCCCCC(=O)O" ?
inactive

Just curious, what result did "CCCCCCCCCCCCc1ccccc1S(=O)(=O)O" get here?
inactive

Hi team, can someone confirm the assay call for "c1ccc2c(c1)Cc1ccccc1-2" ?
inactive

Dear all, I need the recorded test outcome for "CCN(CC)CCNc1ccc(CNC=O)c2sc3ccc(OC)cc3c(=O)c12" , thank you.
active

# outcome recorded in this test, key = CCCCC(CC)COC(=O)CCCCC(=O)OCc1ccccc1 (centres undefined)
inactive

# lookup: test call for "CC(=O)NC1(c2cccc(F)c2)CCN(CC[C@@]2(c3ccc(Cl)c(Cl)c3)CN(c3ccccc3)C(=O)CO2)CC1"
active

Hello, I am checking results. What call was entered for "CC(C)(C)CC(C)(C)c1ccc(O)c(-n2nc3ccccc3n2)c1" ?
inactive

Record request — test call for "CC[C@H](C)[C@@H](C(=O)O)n1sc2ccccc2c1=O"
inactive

// return assay outcome for "Nc1cccc2c(N)cccc12"
inactive

Entry COCC(C)O (centres undefined) : call = ?
inactive

Please indicate how the test categorized "O=C(/C=C/c1ccc(O)cc1)CC(=O)/C=C/c1ccc(O)cc1" .
inactive

Field: outcome | Entry: "OCCC(F)(F)C(F)(F)C(F)(F)C(F)(F)C(F)(F)C(F)(F)C(F)(F)C(F)(F)F"
inactive

Please let me know the test result on file for OC1CCC(C2CCCCC2)CC1 (centres undefined) .
inactive

Tell me the assay call for "O=C1OC2(c3ccccc31)c1cc(Br)c(O)c(Br)c1Oc1c2cc(Br)c(O)c1Br" please.
inactive

Any idea what this test logged for "CC#C[C@]1(O)CC[C@H]2[C@@H]3CCC4=CC(=O)CCC4=C3[C@@H](c3ccc(N(C)C)cc3)C[C@@]21C" ?
active

Per the assay record, what outcome was assigned to CC(O)C(=O)O (centres undefined) ?
inactive

Test call, this molecule: CCc1ccc(CCOc2ccc(CC3SC(=O)NC3=O)cc2)nc1 (centres undefined)
inactive

Short answer needed: outcome of this test for CCc1nn(C2CCCCC2)c2cc(C3(C#N)CCC(C(=O)O)CC3)ccc12 (centres undefined) ?
inactive

Dear all, I need the recorded test outcome for "CCCCCCCCCCCCN1CCCC1=O" , thank you.
inactive

---

assay_target: Cellular tumor antigen p53 (Homo sapiens) (UniProt P04637)
Sequence (P04637 whole entry, looked up): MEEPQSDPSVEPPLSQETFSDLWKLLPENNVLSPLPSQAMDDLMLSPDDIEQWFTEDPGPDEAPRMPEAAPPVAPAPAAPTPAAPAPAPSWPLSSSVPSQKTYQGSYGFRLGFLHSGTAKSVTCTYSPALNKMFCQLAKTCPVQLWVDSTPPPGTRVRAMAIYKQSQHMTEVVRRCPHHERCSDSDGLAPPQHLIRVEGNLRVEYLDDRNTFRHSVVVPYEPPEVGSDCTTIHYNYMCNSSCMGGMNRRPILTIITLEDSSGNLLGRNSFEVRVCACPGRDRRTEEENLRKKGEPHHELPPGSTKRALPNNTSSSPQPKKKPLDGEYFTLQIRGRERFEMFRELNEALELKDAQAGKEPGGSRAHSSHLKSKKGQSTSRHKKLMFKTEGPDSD
protocol: TOX21_p53_BLA_p3_ratio: Tox21 HCT-116 p53 Agonism Beta-lactamase Assay, Ratio, Phase 3 (AID 2283596)
Inconclusive results are not listed. Active and inactive are the calls of the source. How the source made its calls: active means hit-call score of the fitted dose curve at least 0.9, where 1 is the maximum; inconclusive means response in the unintended direction; inactive means score below 0.9.
measured_endpoint: AC50

Before answering, review these 5 worked examples.
[[record]]
molecule = "COC(=O)CCCCC(=O)OC"
measured_endpoint = "AC50"
readout_value = "inactive"

[[record]]
molecule = "CC(C)(C)c1cc(C(C)(C)C)c(O)c(C(C)(C)C)c1"
measured_endpoint = "AC50"
readout_value = "inactive"

[[record]]
molecule = "COc1ccc([N+](=O)[O-])cc1N"
measured_endpoint = "AC50"
readout_value = "inactive"

[[record]]
molecule = "Cc1ccc(S(=O)(=O)O)c(C)c1"
measured_endpoint = "AC50"
readout_value = "inactive"

[[record]]
molecule = "CN1CCN(c2ccccc2/C=C2\\SCCN(c3ccc(Cl)c(Cl)c3)C2=O)CC1"
measured_endpoint = "AC50"
readout_value = "inactive"


Fill in AC50 for "CC(C)(C)CC(C)(C)c1ccc(O)c(-n2nc3ccccc3n2)c1" tested with Cellular tumor antigen p53 (Homo sapiens) (UniProt P04637).
inactive

Retrieve AC50 on Cellular tumor antigen p53 (Homo sapiens) (UniProt P04637); query "CCCOc1sc(C(=O)N2CCC(c3cc(CN)ccc3F)CC2)c(C)c1Br"
80.4 µM (active)

Recall the reported AC50 of "O=C(O)Cc1cc(I)c(Oc2cc(I)c(O)c(I)c2)c(I)c1" on Cellular tumor antigen p53 (Homo sapiens) (UniProt P04637) and write it down.
28.2 µM (active)

Determine reported AC50 for "NC(=O)N(O)[C@@H]1C=C[C@H](Oc2cccc(Oc3ccc(F)cc3)c2)C1" ; test system: Cellular tumor antigen p53 (Homo sapiens) (UniProt P04637).
inactive

---

Read-out: Alpha-fetoprotein (AFP) gene, AFP (gene 174)
protocol: LTEA_HepaRG_AFP: Life Technologies and Expression Analysis (LTEA) Assay for Alpha-fetoprotein (AFP) gene using HepaRG (AID 2283472);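 as to AC50: AFP transcript by TaqMan qRT-PCR normalized to ACTB GAPDH and POLR2A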
study_conditions: mRNA level, 48 h; actives raise or lower the signal
The source made the active and inactive calls. How the source made its calls: active means hit-call score of the fitted dose curve at least 0.9, where 1 is the maximum; inactive means score below 0.9.
measured_endpoint: AC50

Worked set:
[[record]]
molecule = "C[C@@H]1C[C@H]2[C@@H]3CCC4=CC(=O)C=C[C@]4(C)[C@@]3(F)[C@@H](O)C[C@]2(C)[C@@]1(O)C(=O)COP(=O)(O)O"
measured_endpoint = "AC50"
readout_value = "inactive"

[[record]]
molecule = "COCC(C)O (stereo not drawn)"
measured_endpoint = "AC50"
readout_value = "inactive"

[[record]]
molecule = "CC[C@H](C)[C@@H](C(=O)O)n1sc2ccccc2c1=O"
measured_endpoint = "AC50"
readout_value = "inactive"

[[record]]
molecule = "NC(=O)N(O)[C@@H]1C=C[C@H](Oc2cccc(Oc3ccc(F)cc3)c2)C1"
measured_endpoint = "AC50"
readout_value = "20.2 µM (active)"

[[record]]
molecule = "CN1CCN(c2ccccc2/C=C2\\SCCN(c3ccc(Cl)c(Cl)c3)C2=O)CC1"
measured_endpoint = "AC50"
readout_value = "11.5 µM (active)"


Fill in reported AC50 for this entry: CCCCC(CC)COC(=O)CCCCC(=O)OCc1ccccc1 (stereo not drawn)
inactive

Look up and report measured AC50 for this entry: "COC(=O)CCCCC(=O)OC"
inactive

Give the reported value of AC50 for this record: NC(=O)N1C(=O)C(C(=O)c2cc(Cl)cs2)c2cc(F)c(Cl)cc21 (stereo not drawn)
inactive

---

Read-out: ABC Transporter (ABCB11), ABCB11 (gene 8647)
protocol: LTEA_HepaRG_ABCB11: Life Technologies and Expression Analysis (LTEA) Assay for ABC Transporter (ABCB11) using HepaRG (AID 2283463)
study_conditions: mRNA level, 48 h; actives raise or lower the signal
Calls of active or inactive are those of the source. Rule for the calls: active = hit-call score of the fitted dose curve at least 0.9, where 1 is the maximum; inactive = score below 0.9.
The reply should be one of these categories: yes (1) (active), no (0) (inactive)

// outcome(item) with item = "Cc1oc(-c2ccccc2)nc1CCOc1ccc(C[C@H](Nc2ccccc2C(=O)c2ccccc2)C(=O)O)cc1"
yes (1)

What did the test return for "CN1CCN(c2ccccc2/C=C2\SCCN(c3ccc(Cl)c(Cl)c3)C2=O)CC1" ?
yes (1)

So what was the verdict on "CCCCOCCO" in this test?
no (0)

---

Read-out: UDP glucuronosyltransferase (UGT1A1), UGT1A1 (gene 54658)
protocol: LTEA_HepaRG_UGT1A1: Life Technologies and Expression Analysis (LTEA) Assay for UDP glucuronosyltransferase (UGT1A1) using HepaRG (AID 2283538)
study_conditions: mRNA level, 48 h; actives raise or lower the signal
Calls of active or inactive are those of the source. Rule for the calls: active = hit-call score of the fitted dose curve at least 0.9, where 1 is the maximum; inactive = score below 0.9.
measured_endpoint: AC50

[[record]]
molecule = "Nc1cccc2c(N)cccc12"
measured_endpoint = "AC50"
readout_value = "inactive"

[[record]]
molecule = "O=c1c(-c2ccc(O)cc2)coc2cc(O)ccc12"
measured_endpoint = "AC50"
readout_value = "inactive"

[[record]]
molecule = "COCC(C)OCC(C)O (stereo not drawn)"
measured_endpoint = "AC50"
readout_value = "inactive"

[[record]]
molecule = "COCC(C)O (stereo not drawn)"
measured_endpoint = "AC50"
readout_value = "inactive"


Field: next molecule
Give AC50 for CCc1ccc(CCOc2ccc(CC3SC(=O)NC3=O)cc2)nc1 (stereo not drawn)
12.2 µM (active)
